# System: A498 renal
# ASSAY_NAME: NCI-60 one-dose screen, 48 h (100 = growth as untreated, 0 = no growth, -100 = all killed)
# EXPERIMENTAL_CONDITIONS: 10 µM unless noted
This is part of a sample that, as a whole, favours compounds with a hit. Of some 83,000 tested, about 20% had one in any assay.
MEASUREMENT_LABEL: growth (%)
API: value field is a number in %; no unit string.

Data request: Sample CCCCC1COc2cccc3c2N1C=C/C3=C\C(=O)N(C)c1ccccc1 (stereo not given) — what was its growth?
Data returned: 86.1

Data request: Next compound: "O=C(/C=C/c1ccc(Cl)cc1)c1ccc(Nc2nc(NCCO)nc(Nc3ccc(Cl)cc3)n2)cc1"
Data returned: 79.5

Data request: Next compound: "O=c1oc2ccc(I)cc2c(=O)n1-c1ccc(I)cc1F"
Data returned: -73.3

Data request: Next compound: "CCOC(=O)C1=C(C)c2ccc(OC)c(OC)c2C1"
Data returned: 96.3

Data request: Next compound: CC(C)CCNCC(O)Cn1c2ccccc2c2ccccc21 (stereo not given)
Data returned: 3.02
